Please provide measured IC50 for the entries that follow.
target: Human Calpain 1/NS1 (Homo sapiens, UniProt P07384); assay: Calpain inhibition continuous fluorescence (FRET) assay, Human Calpain 1/NS1; type: biochemical; details: read-out: Human Calpain 1/NS1 IC50
Sequence (P07384 whole entry): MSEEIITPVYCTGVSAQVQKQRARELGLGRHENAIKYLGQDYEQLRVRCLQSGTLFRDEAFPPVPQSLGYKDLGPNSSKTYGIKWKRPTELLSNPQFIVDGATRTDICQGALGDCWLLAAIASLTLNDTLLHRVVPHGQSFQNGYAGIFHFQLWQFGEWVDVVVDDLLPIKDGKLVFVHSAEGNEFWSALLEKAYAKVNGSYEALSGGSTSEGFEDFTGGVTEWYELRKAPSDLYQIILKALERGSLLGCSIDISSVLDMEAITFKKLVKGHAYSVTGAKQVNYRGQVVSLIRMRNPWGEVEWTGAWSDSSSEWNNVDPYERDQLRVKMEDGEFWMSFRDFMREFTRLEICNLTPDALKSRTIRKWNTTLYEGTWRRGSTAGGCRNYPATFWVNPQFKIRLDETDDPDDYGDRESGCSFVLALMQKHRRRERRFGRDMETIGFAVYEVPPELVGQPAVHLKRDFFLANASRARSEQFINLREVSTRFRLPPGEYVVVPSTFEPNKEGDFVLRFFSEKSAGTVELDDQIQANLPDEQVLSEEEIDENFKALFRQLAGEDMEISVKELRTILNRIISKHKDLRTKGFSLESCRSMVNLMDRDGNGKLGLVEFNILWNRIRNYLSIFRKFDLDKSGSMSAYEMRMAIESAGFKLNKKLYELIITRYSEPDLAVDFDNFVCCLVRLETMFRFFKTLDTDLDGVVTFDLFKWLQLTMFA
Sequence (P04632 whole entry partner): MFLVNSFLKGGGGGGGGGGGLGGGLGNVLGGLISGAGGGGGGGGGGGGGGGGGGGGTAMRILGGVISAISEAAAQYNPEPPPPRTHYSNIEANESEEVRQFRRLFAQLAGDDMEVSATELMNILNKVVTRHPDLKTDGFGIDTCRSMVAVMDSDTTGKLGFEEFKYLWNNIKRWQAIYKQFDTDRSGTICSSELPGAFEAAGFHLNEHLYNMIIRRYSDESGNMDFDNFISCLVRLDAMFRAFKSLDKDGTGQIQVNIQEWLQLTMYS

Task item: # lookup: IC50 of Cc1cc(C)cc(C[C@H](NC(=O)c2cn(C)nc2-c2ccccc2)C(=O)C(N)=O)c1
Reply: < 3 µM

Task item: Can you share its IC50? I mean this compound: Cc1nc(-c2ccccc2)c(C(=O)N[C@@H](CC(C)(C)C)C(=O)C(N)=O)o1
Reply: < 3 µM

Task item: Please give the measured IC50 for this compound: NC(=O)C(=O)C(Cc1ccccc1)NC(=O)c1cn(C2CC2)nc1-c1ccc(C(F)(F)F)nc1 (stereo not drawn)
Reply: < 3 µM

Task item: Fill blank: measured IC50 of the compound Cn1cc(C(=O)N[C@H](C(=O)C(N)=O)C2Cc3ccccc3C2)c(-c2ccccc2F)n1 is ____.
Reply: < 3 µM

Task item: Which IC50 is reported for this compound? Cn1cc(C(=O)NC(Cc2ccccc2)C(=O)C(N)=O)c(-c2cccc(F)c2C(F)(F)F)n1 (stereo not drawn)
Reply: 3 to 10 µM

Task item: Give the measured IC50 of O=C[C@H](Cc1ccccc1)NC(=O)c1cn(C2CC2)nc1-c1ccccc1 .
Reply: < 3 µM

Task item: // IC50 lookup, key: Cn1cc(C(=O)NC(Cc2ccccc2)C(=O)C(N)=O)c(-c2cc3ccccc3cn2)n1 (stereo not drawn)
Reply: < 3 µM

Task item: I am curious: what IC50 value has been reported for Cc1nc(C(=O)NC(Cc2ccccc2)C(=O)C(N)=O)c(-c2ccccc2)o1 (stereo not drawn) ?
Reply: < 3 µM

Task item: For the compound shown here, NC(=O)C(=O)C(Cc1ccccc1)NC(=O)c1cc(Br)nn1-c1ncccn1 (stereo not drawn) , give the reported IC50.
Reply: < 3 µM

Task item: # lookup: IC50 of Cn1cc(C(=O)N[C@@H](Cc2ccccc2)C(=O)C(=O)NCC(N)=O)c(-c2ccccc2)n1
Reply: < 3 µM

Task item: IC50 lookup needed for Cn1cc(C(=O)NC(Cc2ccccc2)C(=O)C(N)=O)c(-c2ccc(F)cc2)n1 (stereo not drawn) , thanks.
Reply: < 3 µM

Task item: Can you share its IC50? I mean this compound: Cn1cc(C(=O)NC(Cc2ccccc2)C(=O)C(N)=O)c(-c2cccc(F)c2F)n1 (stereo not drawn)
Reply: < 3 µM

Task item: Can you share its IC50? I mean this compound: Cc1cc(C(=O)NC(Cc2ccccc2)C(=O)C(N)=O)c(-c2nc3ccccc3[nH]2)s1 (stereo not drawn)
Reply: < 3 µM

Task item: Requested read-out: IC50. Entry: Cn1cc(C(=O)NC(Cc2ccccc2)C(=O)C(N)=O)c(-c2ccccc2Cl)n1 (stereo not drawn)
Reply: < 3 µM

Task item: What does the record list as IC50 for Cc1cc(C(=O)NC(Cc2ccccc2)C(=O)C(N)=O)c(-n2ccc(-c3ccccc3)n2)s1 (stereo not drawn) ?
Reply: < 3 µM
